test system: BE-13 (T-Lymphoblastic Leukemia); experiment: Bliss excess, mean over the matrix (fraction); higher = more synergy;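 further: after 72 h of two-drug dosing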
VALUE KIND: Bliss excess
Answers are plain numbers.

The examples below pair each entry with its known result.
COMPOUND	DATA VALUE
O=C(c1cc(Cc2n[nH]c(=O)c3ccccc23)ccc1F)N1CCN(C(=O)C2CC2)CC1 [Olaparib] + COc1nnc2ccc(N3CCC(c4ccc(OCCN5CCN(C)C(=O)[C@H]5C)cc4)CC3)nn12 [AZD5153] (first compound max 10 µM, 7x7, partner max 1 µM)	-0.0681
C[C@@H](c1ccc2nccn2c1)n1nnc2ncc(-c3cnn(C)c3)nc21 [Savolitinib] + CC1(C)CCC(CN2CCN(c3ccc(C(=O)NS(=O)(=O)c4ccc(NCC5CCOCC5)c([N+](=O)[O-])c4)c(Oc4cnc5[nH]ccc5c4)c3)CC2)=C(c2ccc(Cl)cc2)C1 [Venetoclax] (first compound max 1 µM, 7x7, partner max 1 µM)	-0.0307

I would be grateful if you could provide Bliss excess for each of the following entries.
1. COc1nnc2ccc(N3CCC(c4ccc(OCCN5CCN(C)C(=O)[C@H]5C)cc4)CC3)nn12 [AZD5153] + C=CCn1c(=O)c2cnc(Nc3ccc(N4CCN(C)CC4)cc3)nc2n1-c1cccc(C(C)(C)O)n1 [AZD1775] (first compound max 1 µM, partner max 1 µM)
2. C=CCn1c(=O)c2cnc(Nc3ccc(N4CCN(C)CC4)cc3)nc2n1-c1cccc(C(C)(C)O)n1 [AZD1775] + Nc1ccn([C@@H]2O[C@H](CO)[C@@H](O)C2(F)F)c(=O)n1 [Gemcitabine] (first compound max 1 µM, partner max 0.3 µM)
3. Cc1cc2ncnn2cc1Nc1ncc2c(n1)n(C1CCOCC1)c(=O)n2C [AZD7648] + O=C(c1cc(Cc2n[nH]c(=O)c3ccccc23)ccc1F)N1CCN(C(=O)C2CC2)CC1 [Olaparib] (first compound max 10 µM, 7x7, partner max 10 µM)
4. N#Cc1cnc(Nc2cc(NC[C@H]3CNCCO3)c(C(F)(F)F)cn2)cn1 [SRA737] + O=c1[nH]cc(F)c(=O)[nH]1 [5-Fluorouracil] (first compound max 10 µM, 7x7, partner max 20 µM)

RESULT:
[-0.0879, 0.0778, -0.0079, -0.0334]

* * *

test system: KYAE-1 (Esophageal Adenocarcinoma); assay: combination Emax (second highest fraction inhibited in the dose matrix, 72 h); higher = more inhibition; extreme values may be limits of the assay
Outcome: 1.0 for combination Emax of at least 0.2; 0.0 for anything lower.

Use these answered entries as a reference point.
COMPOUND	TARGET	CLASS
C[C@@H](Nc1cc(F)cc(F)c1)c1cc(C(=O)N(C)C)cc2c(=O)cc(N3CCOCC3)oc12 [AZD8186] + CC(=O)c1c(C)c2cnc(Nc3ccc(N4CCNCC4)cn3)nc2n(C2CCCC2)c1=O [Palbociclib] (first compound max 10 µM, 7x7, partner max 10 µM)	KYAE-1 (Esophageal Adenocarcinoma)	0.0
CN(CCO)CC[C@H](CSc1ccccc1)Nc1ccc(S(=O)(=O)NC(=O)c2ccc(N3CCC([C@@H](O)c4ccccc4-c4ccc(Cl)cc4)CC3)cc2)cc1S(=O)(=O)C(F)(F)F [AZD4320] + Cc1cc2ncnn2cc1Nc1ncc2c(n1)n(C1CCOCC1)c(=O)n2C [AZD7648] (first compound max 1 µM, 7x7, partner max 10 µM)	KYAE-1 (Esophageal Adenocarcinoma)	1.0
CC1(C)CCC(CN2CCN(c3ccc(C(=O)NS(=O)(=O)c4ccc(NCC5CCOCC5)c([N+](=O)[O-])c4)c(Oc4cnc5[nH]ccc5c4)c3)CC2)=C(c2ccc(Cl)cc2)C1 [Venetoclax] + CCN(CCO)CCCOc1ccc2c(Nc3cc(CC(=O)Nc4cccc(F)c4)[nH]n3)ncnc2c1 [AZD2811] (first compound max 1 µM, 7x7, partner max 1 µM)	KYAE-1 (Esophageal Adenocarcinoma)	0.0
C[C@@H](c1ccc2nccn2c1)n1nnc2ncc(-c3cnn(C)c3)nc21 [Savolitinib] + CC1(C)CCC(CN2CCN(c3ccc(C(=O)NS(=O)(=O)c4ccc(NCC5CCOCC5)c([N+](=O)[O-])c4)c(Oc4cnc5[nH]ccc5c4)c3)CC2)=C(c2ccc(Cl)cc2)C1 [Venetoclax] (first compound max 1 µM, 7x7, partner max 1 µM)	KYAE-1 (Esophageal Adenocarcinoma)	0.0

QUERY: Is it the case that CC1(C)CCC(CN2CCN(c3ccc(C(=O)NS(=O)(=O)c4ccc(NCC5CCOCC5)c([N+](=O)[O-])c4)c(Oc4cnc5[nH]ccc5c4)c3)CC2)=C(c2ccc(Cl)cc2)C1 [Venetoclax] + C1CN(CCC1(C(=O)N[C@@H](CCO)C2=CC=C(C=C2)Cl)N)C3=NC=NC4=C3C=CN4 [Capivasertib] (first compound max 1 µM, 7x7, partner max 3 µM) has combination Emax reaching or exceeding 0.2?
RESULT: 1.0

QUERY: Is it the case that COc1nnc2ccc(N3CCC(c4ccc(OCCN5CCN(C)C(=O)[C@H]5C)cc4)CC3)nn12 [AZD5153] + C[C@@H]1COCCN1C2=NC(=NC(=C2)C3(CC3)[S@](=N)(=O)C)C4=C5C=CNC5=NC=C4 [AZD6738] (first compound max 1 µM, 7x7, partner max 10 µM) has combination Emax reaching or exceeding 0.2?
RESULT: 1.0

Values compiled from the supplement of paper PMC11061612.
